experiment: soluble fraction after stress (log2 fold change); higher = more stays soluble; pooled small domains, quantitative proteomics; details: stress: pH 4
Assay readout: soluble fraction (log2)

>>> test_result("HMADQVLVMTRAVGQGDIVRNADIGLTSVAVDRAVATIPASQLDKIVGRHALVDLSPGQLLGSHSVGE")
0.107
>>> test_result("HMGSLQPLLLAAIDALQTHIRSGLPFRVEERLAELDQFRTELQNGSVPPQRGVNRLWAFYEDEFRL")
-0.386
>>> test_result("HMTRQEFIRKLQEALNGKLDAATIQDHLKFYDDYIIEEMRKGKSEQEVLELLGDPWAIAKTIVDAS")
-0.44

---

assay: soluble fraction after stress (log2 fold change); higher = more stays soluble; pooled small domains, quantitative proteomics; conditions: stress: pH 4
Binning rule for recorded soluble fraction (log2): low bracket = under -0.8, middle bracket = from -0.8 up to 0.04, high bracket = 0.04 and over

>>> category("HMIDYTDTSAVKDSAAVAGRVREMINEGVPIADVNAFIRSASENGLISDDSARRLRYMNDSR")
"high bracket"
>>> category("HMGAAVEVISLRYRSAAELLPIVRSLLSTEGKISADERTNSLIIVDSDEAVARVIHSLATLDT")
"low bracket"
>>> category("HMIIIMKPNASEEAVRKVTHIIESKGLQVHLSKGSQVTIVGVVGDKTRLQGSNIEISEGVDKVVAVT")
"middle bracket"
>>> category("HMDNEVTIAVQVNGKLRDKLIVALDTPNEKIEQLALALPKVIQNTSGLTVRKVIVIPNRLVNIVA")
"high bracket"
>>> category("HMVSQKPKERELWFREQLELAGLRLDPHAISAINETLGNDTGRFPGIIDTLLSTYGAGKKLSYDDVVMFL")
"low bracket"
>>> category("HMPPALTELLSVRTNASGTIDYLLPDRSAGLRVENGSKYSGMVPDSIYRLVAIYEIKDAKEPSAYIYTI")
"middle bracket"
>>> category("HMKLSALRDKIKEHLLRQIQNGELQVGKTINLAALSRVTGISVTPIREALTQLEQAQVIQAVPNRGFVVA")
"high bracket"
>>> category("HMATIIGSIGIVTQKVGLTGVPGRVYVNNESWAAISANGKEIENDTQVIVVKIDGATLIIEKKG")
"middle bracket"
>>> category("HMAKDEYGLTSNQRAFADEYIRNKGNATQAYLFAYPHIKKENTAAVNASRLLRNAKVSKYIADRTKEIL")
"middle bracket"
>>> category("HMQEVILEKIQLTYLSADKLSKMAEQFSIPVKMYWVDENPMMLMVMGNESDIATFKKVLTQIDIPENKS")
"low bracket"
>>> category("HMKTALQENVRAYRLERKWTQQALAEALEVSVGAVSKWESGVSRPELETLMRLAELFGVSTDALLGF")
"low bracket"
>>> category("HMVPLSPRFFDIFRKRKDLTRQNVDVYFRDHPTEITAFERYIKGLVSQSYIPAERADALLLVASQYKAK")
"high bracket"
>>> category("HMSDLVATKEQVVEAYKYGLGLGLDNSTLKMLLFDIRGEDVADQDKISDGMTVSEIEIWKEGMRTIAEEYL")
"low bracket"
>>> category("HMSVPRVWTDIQGRRVKGDFEGLRGDLVVLRVGGKSYAFPLVRLIASDQAYARSLVAGNPSK")
"high bracket"
>>> category("HMGSYANAWQLAEHAAKDMLGEVIYLLDGKEVHAGILETMSAESIKTASAENVDGKVVIRLVSK")
"middle bracket"
>>> category("HMEYELYALKEEVLKRLTREDRELLILLFEERRTIHAVAQRLGLSDSAVYKRRTQLVNKVKVIASMLM")
"middle bracket"
>>> category("HMSMSVLFSELDQKDAGVIVEKLKERKIPYELQSGGSAIMVPANVLHETRLQLAAEGLPQSS")
"high bracket"

---

assay: soluble fraction after stress (log2 fold change); higher = more stays soluble; pooled small domains, quantitative proteomics; settings: stress: pH 4
Label true for high-side soluble fraction (log2) (at or above -0.5) and false for low-side soluble fraction (log2) (below it).

>>> category("HMEIDDPWLILGINAGSSIEIAQKAWKDLASQNHPDKLIANGVPKELLGMANEKLAIINGAYDKILKAHKI")
"false"
>>> category("HMAQIVNLPRKNVNGASYYYYEVQPKETIYSISRKLGVSGAEIQRHNPSVADGLKIGQVLYFPAEG")
"true"
>>> category("HMEADERRNEILDAAETLITEKGYSKTTIIDILNQVGIAKGTFYYYFKSKEEVMDAIIERFI")
"false"
>>> category("HMDNLKELDEILETYGKKKGYLITILQKAQDAYGYISIDIMNRISEFTGIKVAKIYGVATFYAQFRL")
"false"
>>> category("HMERMTSTEILTRDFLTTNSKIVKKSTIEELSEIIHVSPATIIRTVKKMGYSGFSEYKNELINQ")
"true"
>>> category("HMDKPVIEDVSFDDLAYMVGERVIIRTHLRSTRDGELKSFNRAGILVSLRNRPGMELEIPRSTVASAQVVW")
"false"
>>> category("HMTPEPVREALTFQEGRVFALAAKNMTNAEIAQSLSLKLKTVENYMSIIYQKLALKNRYELLVYARKSGV")
"true"
>>> category("HMSARKVTVALHTRDHADRLRRLLKHEGVSADLVAARLSHKLTDHPIEVRVNEDDIPAVLRIIENIEIF")
"false"
>>> category("HMKNNLKGSPIIIAGGYGVGSKENFNLLFDLAKVLNAEVGASRAAVDAGFVEHDRQIGQTGVTVRP")
"true"
>>> category("HMISEKEIKIIEDILARWNGKLTWDDFTSKVAKKLNLPSLSKFTLMGYPEIKQAFLTRKQTLK")
"true"
>>> category("HMESDAIAAAIAALPARYREVLLLRYDNGFSYSEISKALDMTEAAVRKTVQRAKEALQRTLQIQEEDT")
"true"
>>> category("HMERPKSLRELALEHLRNSIIDGSLKMGQVLSERKISEELGVSKSPVREALAQLRDEGLVSIEPQKGARV")
"true"
>>> category("HMSEYLDIHMAMEKLNRKEQLFVHLRFYEGLTQSEIAQRLFTSQVQISRLEKSVLEKMRQILSK")
"false"
>>> category("HMLILDTDGRYVIKRGDSLSEILEKIANGSNINLNLLKRAFVTANPKAFKRANPNWMYANAR")
"true"
>>> category("HMLPELQPGQTFSARIQQALPDNTYRALVAGKQLTLQLPEGAKAGDELELVVLDRSARVIIARQVD")
"true"
>>> category("HMQASTGNVNTETLNLRKEASTSADILKLLSQGDEVEIVSESNGWYKVKYKDTEGFVSKEYITVN")
"true"

---

assay: soluble fraction after stress (log2 fold change); higher = more stays soluble; pooled small domains, quantitative proteomics; conditions: stress: pH 4
Listed here are sequences together with their documented soluble fraction (log2).
Assay readout: soluble fraction (log2)

>>> test_result("HMLRTLSTSEFAEAIGISESSARRLADSGDLRIRRTKGGHRKIPAEEAIRYAREIQATVVRPDLLGLST")
-0.151
>>> test_result("HMSRWHEFLNKSEDGMKELDEQNQKVLTLLILQRFYQTPFQAKEDEEFYREFFERLSSVNEILG")
-0.283
>>> test_result("HMSEPFDMAVPLTSGGRRLDQVLAELLPQHSRNRLQGWIRDGLLTLDGVTVTEPKRKLAGGEQLALLLP")
-0.238
>>> test_result("HMLESPVEAIIRQIKQLITNGKLKPGDRLPAERLLAENFGVGRGYVREAIMKLEFFGLLKTSPQSGTYVAG")
-0.257
>>> test_result("HMTAVVPNFKGKLISELSNFVADKNVRYTIIDSIYDPEEKSGIVIKQDPEEKTQVKHNRIIYLYVTST")
-1.11
>>> test_result("HMTERIRLHDDIGSWVEKHGATRSALIPVLQGIQRSYNEISEYAMQEVADRLDIHPVEVYSVVSFYSF")
0.103
>>> test_result("HMTLGARTLAAIQSLPKVQQAVFTMKHFEGLKYREISQITGTSEGALKASYHIALEKIKAFLREK")
-0.443
>>> test_result("HMDGEFINLKNRAGTEIEARILNYQNGQVKLERKDGVTFVVSISMFDAKSVIAINHKIAEIIDT")
0.12
>>> test_result("HMYKTKVDIAYDMLMERITEGVYKPGEKLVITHISKELGISDIPVREAIRRLESEGYVKILPNQGAIVYD")
-0.185
>>> test_result("HMEAYMVPNVKNKTLNEAQQALSNQKLKGLVIDSSYVKGVPDGMVLDQNPAGGARVKEGRTIYLTVTTS")
0.259
>>> test_result("HMDAYMIGHNIAKWRKEKGMTQDQLAEHLSVSGQAVSKWENGASLPDIAILPKLAEIFDVTMDQLFSR")
0.166
>>> test_result("HMYPQLIGFKVIDEDKGEVGVVKEVSESMHQILLTVMKGKKEILIPLAEEFITKVNRHKKELFMVLPDG")
-0.383
>>> test_result("HMEKEYMKNVVGMEYRQARVLLGDMGLELAFQPVYETSDKYPTDVVVSTEPAADQPLTKGQTVILHIST")
0.299
>>> test_result("HMLADIGGRIADLRREVGLTQGELAEKADISVVHLSNIELGKKTPGLSTLIRIAEALDVATDWILQA")
-1.13
>>> test_result("HMTSEPFYNPRRPQPYWTSETDRHTTYADAVRALAREFSETPEWVESNMGETNDLQEIRRNLSRVKSG")
-0.108
>>> test_result("HMQDEAQLSMSNKYIFEGNSIVKDNFIEAEKKYRLGVSAKPNNAVGSYNLANAYYNSKLYDEAMLRLL")
-0.179
>>> test_result("HMETPEIPGLTPRQVEIMLLVGKGYSNKEIARFLTISPETVKTHLKEVFLRFGLRNRVEAIDFTRQNGL")
-0.358
>>> test_result("HMADGDIIPEGQRDATLASLAGSMRARGMTEAEILAALQVTNETRVRPPMALADLERIARSIGRYEPGK")
0.0649
>>> test_result("HMDAPQRVTYLLPHSRGEVVSWLHRQGEVVAQEYEAEGVRVVVDLRYAQIRQAAKQFDVLPAEG")
-0.656
>>> test_result("HMYAPKIETIQVPQDKIREVIGTGGKVIREIVETTGAKIDIGDTGLIKVASSDGEAIRAALDWINSIVAE")
-0.758
>>> test_result("HMDPNFKYIIRIANSDVSGEQKLAYALTSIRGIGERTSNAIIQKLGLDSTQLAGKLTDKNVEDIESA")
-0.0403
>>> test_result("HMKLIIVPNLVGQSRRSVEISLQQIGLRIDTVYTEFNPDYPKGTVAWQFPKSGDHIKKGMGLQITVSQG")
0.22
>>> test_result("HMSGKWSILILHALEQGPKRFNVLHRELSGITQATLTKQLRQLEEDGIILRKAYPQIPPKVEYQLTEIG")
0.112
>>> test_result("HMDNEIRIPLPSLQRDGFSIGTREDDGSQLVRIMSAGSFGGMIRSFRLPEGMRIEGAKWEGEIVSIRL")
-0.0291
